Experiment: Apparent permeability from basolateral to apical side in MDCK cells
Assay type: ADME, cell-based, Canis lupus familiaris
Conditions: dog
EXPERIMENTAL_READOUT: Papp B→A (×10⁻⁶ cm/s)
Please respond with the number in ×10⁻⁶ cm/s and leave the unit unwritten.

INPUT: Give the measured Papp B→A for COc1cc(C(N)=O)nc(-c2cccc(C#C[C@]3(O)CCN(C)C3=O)c2)c1
OUTPUT: 10.2

---

Assay: Oral bioavailability in Beagle dog at 5 mg/kg via gavage administered as single dose
Type: ADME, organism-based, Canis lupus familiaris
Conditions: in vivo
EXPERIMENTAL_READOUT: bioavailability (%)
Please respond with the number in % and leave the unit unwritten.

INPUT: Give the measured bioavailability for COc1cc(C(N)=O)nc(-c2cccc(C#C[C@]3(O)CCN(C)C3=O)c2)c1
OUTPUT: 56
